Source of measurements: ChEMBL document CHEMBL3112502

Test: Stimulation of insulin secretion in rat INS-1E cells after 1 hr by alphaLISA assay in presence of 5 mM glucose relative to IBMX
Assay type: functional
Threshold check on Emax: at or above 40% gives 1, strictly below gives 0.

compound	classification
N=C1N[C@@H](c2cccc(Br)c2)C[C@H]2CC[C@H](CCc3ccccc3)N12	0
N=C1N[C@@H](c2ccc(F)cc2)C[C@H]2CC[C@H](CCc3ccccc3)N12	0
N=C1N[C@@H](c2ccccc2)C[C@H]2CC[C@H](Cc3ccccc3)N12	1
N=C(N)N1C(Sc2ccccc2)CCC1c1ccccc1 (mixture of isomers)	1
CCC[C@H]1CC[C@@H]2C[C@H](c3ccccc3)NC(=N)N12	1
N=C(N)N1C(CCc2ccccc2)CCC1CCc1ccccc1 (mixture of isomers)	0

Q. Exam item: decide whether the reported Emax for Cc1cccc([C@H]2C[C@H]3CC[C@H](CCc4ccccc4)N3C(=N)N2)c1 (mixture of isomers) is at least 40%.
A. 0

Q. Exam item: decide whether the reported Emax for N=C(N)N1C(CCc2ccccc2)CCC1Sc1ccccc1 (stereo not drawn) is at least 40%.
A. 1

Q. Exam item: decide whether the reported Emax for `N=C1N[C@@H](c2ccccc2)C[C@H]2CC[C@H](CCc3cccc(Br)c3)N12` is at least 40%.
A. 0

Q. Exam item: decide whether the reported Emax for `N=C1N[C@H](c2ccccc2)C[C@H]2CC[C@H](CCc3ccccc3)N12` is at least 40%.
A. 0

Q. Exam item: decide whether the reported Emax for `Cc1cc(C)c(Nc2ccccc2CC[C@H]2CC[C@@H]3C[C@H](c4ccccc4)NC(=N)N23)c(C)c1` is at least 40%.
A. 1

Q. Exam item: decide whether the reported Emax for `C[C@@H]1[C@H]2CC[C@H](CCc3ccccc3)N2C(=N)N[C@H]1c1ccccc1` is at least 40%.
A. 0

====

Assay: Stimulation of insulin secretion in rat INS-1E cells after 1 hr by alphaLISA assay in presence of 5 mM glucose relative to IBMX
Assay type: functional
endpoint name: Emax (%)
Give just the number in %; leave the unit off.

Form: compound = `N=C1N[C@@H](C2CCCCC2)C[C@H]2CC[C@H](CCc3ccccc3)N12` ; Emax = 40

Form: compound = N=C(N)N1C(CCc2ccccc2)CCC1Cc1ccccc1 (mixture of isomers) ; Emax = 56

Form: compound = `N=C1N[C@@H](c2ccc(Br)cc2)C[C@H]2CC[C@H](CCc3ccccc3)N12` ; Emax = 23

Form: compound = Cc1ccc([C@H]2C[C@H]3CC[C@H](CCc4ccccc4)N3C(=N)N2)cc1 (mixture of isomers) ; Emax = 40

Form: compound = COc1ccc(Cl)cc1C(=O)NCCc1ccc(S(=O)(=O)NC(=O)NC2CCCCC2)cc1 [GLYBURIDE] ; Emax = 50

Form: compound = `CN1C(=N)N2[C@@H](CCc3ccccc3)CC[C@@H]2C[C@@H]1c1ccccc1` ; Emax = 29

Form: compound = COc1cccc([C@H]2C[C@H]3CC[C@H](CCc4ccccc4)N3C(=N)N2)c1 (mixture of isomers) ; Emax = 21

Form: compound = `Cc1ccccc1[C@H]1C[C@H]2CC[C@H](CCc3ccccc3)N2C(=N)N1` ; Emax = 59

====

Test: Stimulation of insulin secretion in rat INS-1E cells after 1 hr by alphaLISA assay in presence of 5 mM glucose relative to IBMX
Assay type: functional
Threshold check on Emax: at or above 30% gives Fulfilled, strictly below gives Not fulfilled.

compound	classification
N=C1NC(c2ccccc2)CCN1CCCc1ccccc1 (stereo unspecified)	Fulfilled

Q. Exam item: decide whether the reported Emax for `N=C1N[C@@H](c2ccccc2)C[C@H]2CC[C@H](CCc3ccccc3)N12` is at least 30%.
A. Fulfilled

Q. Exam item: decide whether the reported Emax for N=C(NCc1ccccc1)N1CCCC1CCc1ccccc1 (stereo unspecified) is at least 30%.
A. Fulfilled

Q. Exam item: decide whether the reported Emax for `C/C=C/[C@H]1C[C@H]2CC[C@H](CCc3ccccc3)N2C(=N)N1` is at least 30%.
A. Not fulfilled

Q. Exam item: decide whether the reported Emax for N=C1N[C@@H](c2ccccc2)C[C@H]2CC[C@H](CCCc3ccccc3)N12 (mixture of isomers) is at least 30%.
A. Fulfilled

Q. Exam item: decide whether the reported Emax for N=C1N[C@@H](c2ccccc2Br)C[C@H]2CC[C@H](CCc3ccccc3)N12 (mixture of isomers) is at least 30%.
A. Fulfilled
